- TARGET_OR_TEST_SYSTEM: human TLR7 (Homo sapiens)
- Construct: expressed in transfected cells; host or cells: HEK 293 (hTLR7/seap-293)
- PROTOCOL_TEXT: Human TLR7 reporter assay (NF-kB-SEAP, HEK 293 cells)
- Format: cell-based
- SETTINGS: Table 6; tested in a similar manner to Example 85; read-out: human TLR7 binding activity EC50
Label y when EC50 < 4 nM; otherwise n.

- CHEMICAL_STRUCTURE: "COCCOc1nc(N)c2[nH]c(=O)n(Cc3ccc(OCC(C)(C)CN(C)C)nc3)c2n1"
  TARGET_OR_TEST_SYSTEM: "human TLR7 (Homo sapiens)"
  GROUP: "n"
- CHEMICAL_STRUCTURE: "CCCCOc1nc(N)c2[nH]c(=O)n(Cc3ccc(CN4CCN(C(=O)CN(C)C)CC4)cc3)c2n1"
  TARGET_OR_TEST_SYSTEM: "human TLR7 (Homo sapiens)"
  GROUP: "y"
- CHEMICAL_STRUCTURE: "COCCOc1nc(N)c2[nH]c(=O)n(Cc3cnc(OC4CCN(C)CC4)c(Cl)c3)c2n1"
  TARGET_OR_TEST_SYSTEM: "human TLR7 (Homo sapiens)"
  GROUP: "n"
- CHEMICAL_STRUCTURE: "COCCOc1nc(N)c2[nH]c(=O)n(Cc3cnc(OCCN(C)C)c(Cl)c3)c2n1"
  TARGET_OR_TEST_SYSTEM: "human TLR7 (Homo sapiens)"
  GROUP: "n"
- CHEMICAL_STRUCTURE: "CCCCOc1nc(N)c2[nH]c(=O)n(Cc3ccc(N(C)CCN(C)C)nc3)c2n1"
  TARGET_OR_TEST_SYSTEM: "human TLR7 (Homo sapiens)"
  GROUP: "n"
- CHEMICAL_STRUCTURE: "CCCCNc1nc(N)c2[nH]c(=O)n(Cc3ccc(OCCCN(C)C)nc3)c2n1"
  TARGET_OR_TEST_SYSTEM: "human TLR7 (Homo sapiens)"
  GROUP: "n"
- CHEMICAL_STRUCTURE: "COCCOc1nc(N)c2[nH]c(=O)n(Cc3cnc(N4CCN(C)CC4)c(Cl)c3)c2n1"
  TARGET_OR_TEST_SYSTEM: "human TLR7 (Homo sapiens)"
  GROUP: "y"
- CHEMICAL_STRUCTURE: "COCCOc1nc(N)c2[nH]c(=O)n(Cc3cnc(OCC(C)(C)CN(C)C)c(Cl)c3)c2n1"
  TARGET_OR_TEST_SYSTEM: "human TLR7 (Homo sapiens)"
  GROUP: "y"

###

- TARGET_OR_TEST_SYSTEM: human TLR7 (Homo sapiens, UniProt Q9NYK1)
- Construct: expressed in transfected cells; host or cells: HEK 293 (hTLR7/seap-293)
- Sequence (Q9NYK1 27-1049): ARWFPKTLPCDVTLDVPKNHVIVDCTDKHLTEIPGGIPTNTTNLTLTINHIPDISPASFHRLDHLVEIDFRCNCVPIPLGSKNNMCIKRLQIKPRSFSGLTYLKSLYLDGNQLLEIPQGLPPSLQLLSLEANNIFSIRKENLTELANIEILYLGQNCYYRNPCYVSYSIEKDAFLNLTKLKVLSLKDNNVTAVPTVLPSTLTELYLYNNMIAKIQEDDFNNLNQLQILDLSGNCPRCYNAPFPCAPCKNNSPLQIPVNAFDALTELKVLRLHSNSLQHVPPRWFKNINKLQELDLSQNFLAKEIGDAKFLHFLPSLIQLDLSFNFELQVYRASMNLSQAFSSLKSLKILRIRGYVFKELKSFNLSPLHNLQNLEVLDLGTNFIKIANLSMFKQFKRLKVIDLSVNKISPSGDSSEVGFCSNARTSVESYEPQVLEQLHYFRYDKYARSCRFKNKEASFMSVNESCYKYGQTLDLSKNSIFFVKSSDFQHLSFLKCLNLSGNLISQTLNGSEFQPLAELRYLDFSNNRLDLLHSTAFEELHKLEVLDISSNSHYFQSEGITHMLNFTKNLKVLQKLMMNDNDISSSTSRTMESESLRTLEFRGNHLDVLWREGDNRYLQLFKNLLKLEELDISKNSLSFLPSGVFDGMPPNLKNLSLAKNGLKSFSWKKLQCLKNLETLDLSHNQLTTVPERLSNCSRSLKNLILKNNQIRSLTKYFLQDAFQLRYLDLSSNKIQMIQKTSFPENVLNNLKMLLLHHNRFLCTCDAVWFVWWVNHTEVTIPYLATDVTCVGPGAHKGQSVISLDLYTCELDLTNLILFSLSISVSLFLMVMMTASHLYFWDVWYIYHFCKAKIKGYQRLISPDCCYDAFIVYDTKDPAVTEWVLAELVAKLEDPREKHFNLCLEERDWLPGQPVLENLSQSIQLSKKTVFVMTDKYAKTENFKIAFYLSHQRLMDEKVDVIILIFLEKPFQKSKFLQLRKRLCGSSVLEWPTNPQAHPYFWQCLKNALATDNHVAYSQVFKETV
- PROTOCOL_TEXT: Human TLR7 reporter assay (NF-kB-SEAP, HEK 293 cells)
- Format: cell-based
- SETTINGS: Table 1; HEK 293 hTLR7/NF-kB-SEAP reporter, 20 hours incubation; read-out: human TLR7 binding activity EC50
pEC50: −log10 of the molar value.

- COMPOUND: "CCCCNc1nc(N)c2[nH]c(=O)n(Cc3cnc(OCCN(C)C)c(Cl)c3)c2n1 [Example 58]"
  pEC50: 8.43
- COMPOUND: "COCCOc1nc(N)c2[nH]c(=O)n(Cc3ccc(CN4CCC(Oc5ccccc5)CC4)cc3)c2n1 [Example 13]"
  pEC50: 7.73
- COMPOUND: "CCCCNc1nc(N)c2[nH]c(=O)n(Cc3cnc(N4CCN(C)CC4)c(Cl)c3)c2n1 [Example 56]"
  pEC50: 8.89
- COMPOUND: "CCCCOc1nc(N)c2[nH]c(=O)n(Cc3ccc(CN4CCCCC4)cc3)c2n1 [Example 2]"
  pEC50: 9.05
- COMPOUND: "CCCCOc1nc(N)c2[nH]c(=O)n(Cc3ccc(CN4CCN(C)CC4)cc3)c2n1 [Example 3]"
  pEC50: 8.74
- COMPOUND: "CCCCOc1nc(N)c2[nH]c(=O)n(Cc3ccc(CN4CCC(N(C)C)CC4)cc3)c2n1 [Example 4]"
  pEC50: 8.60
- COMPOUND: "CCCCOc1nc(N)c2[nH]c(=O)n(Cc3ccc(OCCCN(C)C)cc3)c2n1 [Example 37]"
  pEC50: 8.96
- COMPOUND: "CCCCNc1nc(N)c2[nH]c(=O)n(Cc3ccc(CN4CCCCC4)cc3)c2n1 [Example 29]"
  pEC50: 8.12
